Hey, just so you know, these numbers are from ChEMBL document CHEMBL2375251.

# System: HeLa
# protocol_description: Cytotoxicity against human HeLa cells after 4 days by Coulter counter analysis
# Assay type: functional, cell-based
# study_conditions: 96 h
// map IC50 onto a label; ranges low (below 3 µM), mid (3 µM to below 100 µM), high (100 µM or more)

GET /class?item= `CC(C)(C)c1ccc(CN2C(=O)S/C(=C\c3ccc(N)cc3)C2=O)cc1`
mid

Next compound up: `C=C(Br)C(=O)Nc1cccc(/C=C2\SC(=O)N(CCc3ccccc3)C2=O)c1`
mid

Entry `Nc1ccc(/C=C2\SC(=O)N(Cc3ccc(Cl)cc3)C2=O)cc1` please
mid

###

# System: HeLa
# protocol_description: Cytotoxicity against human HeLa cells after 4 days by Coulter counter analysis
# Assay type: functional, cell-based
# study_conditions: 96 h
measure_name: IC50 (µM)
Hi! Could you send only the number? It should be in µM, unit omitted.

Reference set, count: 3
# smiles_entry, measure_name, reported
measured = [
    ("Nc1ccc(/C=C2\\SC(=O)N(Cc3ccc(F)cc3)C2=O)cc1", "IC50", 186),
    ("C=C(Br)C(=O)Nc1ccc(/C=C2\\SC(=O)N(Cc3ccc(C(C)(C)C)cc3)C2=O)cc1", "IC50", 2.7),
    ("C=C(Br)C(=O)Nc1ccc(/C=C2\\SC(=O)N(Cc3ccc(C)cc3)C2=O)cc1", "IC50", 8.9),
]

Next item in the queue.
Which IC50 value belongs to `Nc1ccc(/C=C2\SC(=O)N(Cc3ccccc3)C2=O)cc1` ?
46
